For each entry below, report its %Inh value.
Tested on: STK36
Settings: concentration: 1 μM, replicates: in singlicate; n = 1;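 note: KINOMEscan kinase panel screen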
Kindly format the answer as number then unit.

Request: Dear colleague, I am looking for the recorded %Inh of the following compound: Cc1occc1-c1ncc(OC[C@@H](N)Cc2c[nH]c3ccccc23)cc1-c1ccc2[nH]nc(C)c2c1.O=C(O)C(F)(F)F [GSK682037]
Response: 0%

Request: Would you kindly repeat that for Nc1n[nH]c2cnc(-c3ccccc3)cc12 [SB-642124] ?
Response: 0%

Request: Please answer likewise for O=C(Nc1n[nH]c2cc(-c3ccoc3)ccc12)C1CC1 [SB-738481]
Response: 13%

Request: Next entry: CC(C)(C)c1ccc2nccc(Nc3cccc(O)c3)c2c1 [GW856795]
Response: 0%

Request: Try the compound "COCCOCCOc1cc2ncc3c4ccc(C#N)cc4[nH]c3c2cc1OC"
Response: 22%

Request: Next compound up: COc1cc(Nc2nccc(N3CCC(NC(=O)Nc4cccc(C(C)=O)c4)C3)n2)cc(OC)c1OC (centres unmarked) [GSK1379753]
Response: 30%

Request: What do you get for CSc1cccc2c(-c3ccncn3)c(-c3ccc(F)cc3)nn12 [GW514786] ?
Response: 38%

Request: Lookup COc1ccc(Nc2nccc(NCCNC(=O)c3cc4ccccc4s3)n2)cc1 [GSK1379896]
Response: 0%

Request: Another: Oc1cc(Nc2ccnc3cc(I)ccc23)ccc1F [GW552771]
Response: 0%

Request: Check COc1cc(Nc2nccc(N3CCC(NC(=O)c4cc5ccccc5s4)C3)n2)cc(OC)c1OC (centres unmarked) [GSK1379760] too.
Response: 32%

Request: O=C(Nc1cccc(-c2nn3ccccc3c2-c2ccnc(Nc3cccc(C(F)(F)F)c3)n2)c1)c1c(F)cccc1F [GSK292658]
Response: 97.8%

Request: Queued: O=C(NC1CCN(c2ccnc(Nc3ccc(F)cc3)n2)C1)c1cc2ccccc2s1 (centres unmarked) [GSK1379716]
Response: 0%

Request: Then this compound: O=C(Nc1cccc(-c2nn3ncccc3c2-c2ccnc(Nc3ccccc3)n2)c1)c1c(F)cccc1F [GSK198271]
Response: 100%

Request: Field entry: Cl.NC(=O)c1cccc(Nc2nccc(Nc3ccc(Oc4c(Cl)cccc4Cl)c(Cl)c3)n2)c1 [GW659009]
Response: 0%

Request: Repeat for the following compound: COC(=O)Nc1nc2ccc(Oc3ccc(NC(=O)Nc4cc(C(F)(F)F)ccc4F)cc3)cc2n1C.Cl [GW692089]
Response: 22%

Request: Same lookup for Clc1ccc(-c2nn3ncccc3c2-c2ccnc(Nc3ccc4c(c3)OCCO4)n2)cc1 [GW829116] , please.
Response: 79%

Request: Same for COc1cc(Nc2nccc(-c3c(-c4cccc(NC(=O)c5c(F)cccc5F)c4)nn4ccccc34)n2)cc(OC)c1OC [GSK323521]
Response: 19%

* * *

System: PDGFRB
Conditions: concentration: 1 μM, replicates: in singlicate; n = 1
property name: %Inh (%)
Answer with a number only, understood to be in %.

Request: For the record "Cn1cc(-c2[nH]c3cc(NC(=O)[C@H](N)C4CCCCC4)cc4c3c2C=NNC4=O)cn1" , what value of %Inh is listed for PDGFRB?
Response: 100

Request: Can you check COc1cccc(C2=C(Nc3ccc(Cl)c(C(=O)O)c3)C(=O)NC2=O)c1 [SB-390769] next?
Response: 5

Request: Another compound: Cc1ccc(C)c(NC(=O)NC2CCN(c3ccnc(Nc4ccc(F)cc4)n3)C2)c1 (stereo not shown) [GSK1379720]
Response: 4

Request: Moving on to COC(=O)Nc1nc2cc(Oc3ccc(NC(=O)Nc4cc(C(F)(F)F)ccc4F)cn3)ccc2[nH]1.Cl.Cl [GW681170]
Response: 99.8

Request: How about COc1cccc(-c2ccc3c(NC(=O)C4CC4)n[nH]c3n2)c1 [SB-710903] ?
Response: 34

Request: Then "COCCOCCOc1cc2ncc3c4ccc(C#N)cc4[nH]c3c2cc1OC" ?
Response: 92.9

Request: Now consider O=C(Nc1n[nH]c2nc(-c3ccc(O)cc3)ccc12)C1CC1 [SB-710363] .
Response: 32

Request: What about this compound? O=C(Nc1ccccc1F)NC1CCN(c2ccnc(Nc3ccc(F)cc3)n2)CC1 [GSK1379800]
Response: 11

Request: Cc1ccc(F)c(C(=O)Nc2cccc(-c3nn4ccccc4c3-c3ccnc(Nc4cccc(F)c4)n3)c2)c1F [GSK361061] , same question.
Response: 99.7

Request: Do the same for COc1ccc(Nc2nccc(N3CCC(NC(=O)Nc4cccc(OC)c4)C3)n2)cc1 (stereo not shown) [GSK1379742] please
Response: 23

Request: Please answer likewise for COc1cc(Nc2nccc(N3CCC(NC(=O)c4cc5ccccc5s4)C3)n2)cc(OC)c1OC (stereo not shown) [GSK1379760]
Response: 44

Request: How about CN(C)S(=O)(=O)c1cc(-c2ccc3nccc(-c4cccc(S(N)(=O)=O)c4)c3c2)cnc1N [GSK1669921] ?
Response: 16

Request: Next record, please: COc1cc(Nc2nccc(-c3c(-c4cccc(NC(=O)c5c(F)cccc5F)c4)nn4ncccc34)n2)cc(OC)c1OC [GSK327238]
Response: 100

Request: Ok, now CC(C)c1nc(-c2cccc(NS(=O)(=O)c3c(F)cccc3F)c2F)c(-c2ccnc(Nc3ccc(N4CCOCC4)nc3)n2)s1 [GSK2008607]
Response: 100

Request: Try this compound too: O=c1[nH]cc(-c2ccc(N3CCOCC3)cc2)c2sc(-c3cn[nH]c3)cc12 [GSK2276055]
Response: 63

Request: Param item: CN(c1ccc(NC(=O)Nc2cc(C(F)(F)F)ccc2F)cc1)c1ccnc(Nc2ccc(S(N)(=O)=O)cc2)n1 [GW809893]
Response: 99.9

* * *

Tested on: HUNK
Settings: concentration: 1 μM, replicates: in singlicate; n = 1
Please go through the items and note down their %Inh.
Numbers only here, please. The scale is %.

Request: # %Inh lookup, item "CC(C)(C)c1ccc2nccc(Nc3cccc(O)c3)c2c1"
Response: 0

Request: Can you check "COc1cccc(C2=C(Nc3ccc(Cl)c(C(=O)O)c3)C(=O)NC2=O)c1" next?
Response: 0

Request: Next molecule up: "Nc1ncnc2c1nc(-c1ccccc1)n2-c1ccccc1"
Response: 0

Request: "O=C(Nc1n[nH]c2nc(-c3ccc(O)cc3)ccc12)C1CC1"
Response: 0

Request: Entry to check: "COc1cc(Nc2ncc3c(C)nc(-c4cc5ccccc5[nH]4)n3n2)cc(OC)c1OC"
Response: 0

Request: What do we get for "Cc1ccc(C(=O)Nc2ccc(Nc3ccnc4cc(-c5nccs5)ccc34)cc2O)cc1.Cl" ?
Response: 30

Request: Repeat with "Cn1cc(-c2[nH]c3cc(NC(=O)[C@H](N)C4CCCCC4)cc4c3c2C=NNC4=O)cn1"
Response: 0

Request: What do we get for "COc1ccc(Nc2nccc(NCCNC(=O)c3cc4ccccc4s3)n2)cc1" ?
Response: 13

Request: Same thing, different molecule: "CN(C)S(=O)(=O)c1cc(-c2ccc3nccc(-c4cccc(S(N)(=O)=O)c4)c3c2)cnc1N"
Response: 0

* * *

Tested on: PAK7
Settings: concentration: 1 μM, replicates: in singlicate; n = 1
Assign %Inh to each entry below.
Note: unit % is implicit; provide only the numeric part.

Request: Look at this molecule and give its reported %Inh. "COc1ccc(Nc2nccc(NCCNC(=O)c3cc4ccccc4s3)n2)cc1"
Response: 0

Request: Please do the same for "Cc1occc1-c1ncc(OC[C@@H](N)Cc2c[nH]c3ccccc23)cc1-c1ccc2[nH]nc(C)c2c1.O=C(O)C(F)(F)F" as well.
Response: 36

Request: Now give it for "C[C@@H]1CC[C@@H](C(=O)Nc2ccccc2)CN1c1cc(-c2ccc3c(N)n[nH]c3c2)nc(N)n1" too.
Response: 6

Request: Repeat for the following molecule: "COc1cccc(C(=O)Nc2cccc(Oc3ccc4nc(NC(=O)C5CC5)cn4n3)c2)c1"
Response: 0

Request: Same again, this time with "Nc1ncc(-c2cccnc2)c2scc(-c3ccc4c(c3)CCN4C(=O)Cc3ccccc3)c12"
Response: 7

Request: Also "CN(c1ccc(NC(=O)Nc2cc(C(F)(F)F)ccc2F)cc1)c1ccnc(Nc2ccc(S(N)(=O)=O)cc2)n1" ?
Response: 0

Request: Would you kindly repeat that for "COc1cc(Nc2nccc(-c3c(-c4cccc(NC(=O)c5c(F)cccc5F)c4)nn4ccccc34)n2)cc(OC)c1OC" ?
Response: 6

Request: Record: "CC(C)(C)c1ccc2nccc(Nc3cccc(O)c3)c2c1"
Response: 2

Request: For "O=C(Nc1ccccc1F)NC1CCN(c2ccnc(Nc3ccc(F)cc3)n2)CC1" then?
Response: 0
